Just for reference, patent US12415785B2 is where these values come from.

Biological target: human STING (HAQ) (Homo sapiens, UniProt Q86WV6, G230A/H232R/R293Q)
Sequence (Q86WV6 whole entry G230A/H232R/R293Q, looked up): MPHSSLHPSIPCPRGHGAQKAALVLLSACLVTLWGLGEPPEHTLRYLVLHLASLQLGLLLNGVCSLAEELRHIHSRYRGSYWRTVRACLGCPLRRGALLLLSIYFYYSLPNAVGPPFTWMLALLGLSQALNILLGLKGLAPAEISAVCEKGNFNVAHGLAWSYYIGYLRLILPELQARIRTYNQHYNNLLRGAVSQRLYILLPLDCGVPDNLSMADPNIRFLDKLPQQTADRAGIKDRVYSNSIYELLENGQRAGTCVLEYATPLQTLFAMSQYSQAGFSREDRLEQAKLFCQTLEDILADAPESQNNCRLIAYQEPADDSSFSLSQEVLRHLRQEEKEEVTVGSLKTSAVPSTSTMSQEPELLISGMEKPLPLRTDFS
Experiment: Differential scanning fluorimetry (DSF), huSTING (HAQ)
Type: binding
Settings: 2 μM protein, compound 100 μM; Tm with ligand minus Tm of protein alone (1% DMSO); read-out: DSF huSTING (HAQ) ΔTm (° C.)
Description: Biophysical experiments were performed with three different recombinant human STING protein variants designated according to allelic nomenclature of Yi et al., (2013). […] The temperature at which a protein unfolds is measured by an increase in the fluorescence of a dye with affinity for hydrophobic parts of the protein that are gradually being exposed during unfolding. […] The inflection point of the transition curve (Tm) is calculated using simple equations such as that of Boltzmann. […]
Listed below: ΔTm at 100 µM values for each entry.

{"compound": "COc1c(C(N)=O)ccc2c1nc(-c1ccc(F)cc1C(=O)O)n2CCn1c(-c2ccc(F)cc2C(=O)O)nc2c(OC)c(C(N)=O)ccc21 [Example 27]", "system": "human STING (HAQ) (Homo sapiens, UniProt Q86WV6, G230A/H232R/R293Q)", "ΔTm at 100 µM, °C": 6.17}
{"compound": "COc1c(C(N)=O)ccc2c1nc(-c1ccc(C(F)(F)F)cc1C(=O)O)n2CCn1c(-c2ccc(C(F)(F)F)cc2C(=O)O)nc2c(OC)c(C(N)=O)ccc21 [Example 38]", "system": "human STING (HAQ) (Homo sapiens, UniProt Q86WV6, G230A/H232R/R293Q)", "ΔTm at 100 µM, °C": 3.68}
{"compound": "COc1c(C(N)=O)ccc2c1nc(-c1cc(F)ccc1C(=O)O)n2CCn1c(-c2cc(F)ccc2C(=O)O)nc2c(OC)c(C(N)=O)ccc21 [Example 28]", "system": "human STING (HAQ) (Homo sapiens, UniProt Q86WV6, G230A/H232R/R293Q)", "ΔTm at 100 µM, °C": -2.19}

====

Listed below: ΔTm at 100 µM values for each entry.
target: human STING (WT) (Homo sapiens (Human), UniProt Q86WV6, H232R); assay: Differential scanning fluorimetry (DSF), huSTING (WT); assay type: binding; settings: 2 μM protein, compound 100 μM; Tm with ligand minus Tm of protein alone (1% DMSO); read-out: DSF huSTING (WT) ΔTm (° C.)
Sequence (Q86WV6 other isoform, or with tags, fused parts or gaps, stated change not applied): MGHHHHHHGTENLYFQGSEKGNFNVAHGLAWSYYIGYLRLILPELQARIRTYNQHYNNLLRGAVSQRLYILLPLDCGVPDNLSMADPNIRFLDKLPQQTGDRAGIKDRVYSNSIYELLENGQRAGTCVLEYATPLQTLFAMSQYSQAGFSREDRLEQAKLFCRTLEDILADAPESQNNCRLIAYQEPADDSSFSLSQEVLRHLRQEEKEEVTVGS
recordedMetric: ΔTm at 100 µM (°C)

{"smilesNotation": "COc1c(C(N)=O)ccc2c1nc(-c1cc(Cl)ccc1C(=O)O)n2CCn1c(-c2cc(Cl)ccc2C(=O)O)nc2c(OC)c(C(N)=O)ccc21", "recordedMetric": "ΔTm at 100 µM", "valueUnits": "°C", "recordedNumber": -2.49}
{"smilesNotation": "COC(=O)c1c(Br)cccc1-c1nc2c(OC)c(C(N)=O)ccc2n1CCn1c(-c2cccc(Br)c2C(=O)OC)nc2c(OC)c(C(N)=O)ccc21", "recordedMetric": "ΔTm at 100 µM", "valueUnits": "°C", "recordedNumber": 2.33}
{"smilesNotation": "COc1c(C(N)=O)ccc2c1nc(-c1c(F)cc(Cl)cc1Br)n2CCn1c(-c2c(F)cc(Cl)cc2Br)nc2c(OC)c(C(N)=O)ccc21", "recordedMetric": "ΔTm at 100 µM", "valueUnits": "°C", "recordedNumber": -0.34}

====

Listed below: DSF huSTING (WT) ΔTm (° C.) values for each entry.
Target: human STING (WT) (Homo sapiens (Human), UniProt Q86WV6, H232R)
Experiment: Differential scanning fluorimetry (DSF), huSTING (WT)
Assay type: binding
Conditions: 2 μM protein, compound 100 μM; Tm with ligand minus Tm of protein alone (1% DMSO)
Experimental: Biophysical experiments were performed with three different recombinant human STING protein variants designated according to allelic nomenclature of Yi et al., (2013). […] The temperature at which a protein unfolds is measured by an increase in the fluorescence of a dye with affinity for hydrophobic parts of the protein that are gradually being exposed during unfolding. […] The inflection point of the transition curve (Tm) is calculated using simple equations such as that of Boltzmann. […]

{"compound": "NC(=O)c1ccc2c(c1)nc(-c1c(Br)cccc1C(=O)O)n2CCn1c(-c2c(Br)cccc2C(=O)O)nc2cc(C(N)=O)ccc21 (single isomer, unassigned) [Example 29.2]", "DSF huSTING (WT) ΔTm (° C.) [°C]": "−6.70"}
{"compound": "COc1c(C(N)=O)ccc2c1nc(-c1c(I)cccc1C(=O)O)n2CCn1c(-c2c(I)cccc2C(=O)O)nc2c(OC)c(C(N)=O)ccc21 (single isomer, unassigned) [Example 19.1]", "DSF huSTING (WT) ΔTm (° C.) [°C]": 19.29}
{"compound": "COc1c(C(N)=O)ccc2c1nc(-c1c(I)cccc1C(=O)O)n2CCn1c(-c2c(I)cccc2C(=O)O)nc2c(OC)c(C(N)=O)ccc21 (single isomer, unassigned) [Example 19.2]", "DSF huSTING (WT) ΔTm (° C.) [°C]": 6.58}
{"compound": "NC(=O)c1ccc2c(c1)nc(-c1c(Br)cccc1C(=O)O)n2CCn1c(-c2c(Br)cccc2C(=O)O)nc2cc(C(N)=O)ccc21 (single isomer, unassigned) [Example 29.1]", "DSF huSTING (WT) ΔTm (° C.) [°C]": "−0.07"}

====

target: WT human STING isoform (THP-1-Dual KI-hSTING-R232 cells) (Homo sapiens (Human), UniProt Q86WV6, H232R); experiment: THP-1-Dual KI-hSTING-R232 reporter cell line assay; settings: 24 h incubation, QUANTI-Luc luminescence
Sequence (Q86WV6 whole entry H232R, canonical isoform): as the sequence (Q86WV6 whole entry G230A/H232R/R293Q, looked up) above, with A230G, Q293R counted along it
Listed below: log10 EC50 values for each entry.
recordedMetric: log10 EC50 (log10 of the value in nM)

{"molecule": "COc1c(C(N)=O)ccc2c1nc(-c1cc(Cl)c(Cl)cc1C(=O)O)n2CCn1c(-c2cc(Cl)c(Cl)cc2C(=O)O)nc2c(OC)c(C(N)=O)ccc21 [Example 8]", "log10 EC50": 2.63}
{"molecule": "COc1c(C(N)=O)ccc2c1nc(-c1ccc(Cl)cc1-c1nn[nH]n1)n2CCn1c(-c2c(F)cc(Cl)cc2C(=O)O)nc2c(OC)c(C(N)=O)ccc21 [Example 47]", "log10 EC50": 2.74}
{"molecule": "COc1c(C(N)=O)ccc2c1nc(-c1ccc(C)cc1C(=O)O)n2CCn1c(-c2ccc(C)cc2C(=O)O)nc2c(OC)c(C(N)=O)ccc21 [Example 25]", "log10 EC50": 3.51}
{"molecule": "COc1c(C(N)=O)ccc2c1nc(-c1cnccc1C(=O)O)n2CCn1c(-c2cnccc2C(=O)O)nc2c(OC)c(C(N)=O)ccc21 [Example 30]", "log10 EC50": 4.46}
{"molecule": "COc1c(C(N)=O)ccc2c1nc(-c1c(F)cc(F)cc1-c1n[nH]c(=O)o1)n2CCn1c(-c2c(F)cc(F)cc2-c2n[nH]c(=O)o2)nc2c(OC)c(C(N)=O)ccc21 [Example 44]", "log10 EC50": 2.58}

====

Listed below: ΔTm at 100 µM values for each entry.
target: human STING (WT) (Homo sapiens (Human), UniProt Q86WV6, H232R); assay: Differential scanning fluorimetry (DSF), huSTING (WT); type: binding; settings: 2 μM protein, compound 100 μM; Tm with ligand minus Tm of protein alone (1% DMSO); read-out: DSF huSTING (WT) ΔTm (° C.)
recordedMetric: ΔTm at 100 µM (°C)

{"smilesNotation": "COc1c(C(N)=O)ccc2c1nc(-c1c(F)cc(F)cc1C(=O)O)n2CCn1c(-c2c(F)cc(F)cc2C(=O)O)nc2c(OC)c(C(N)=O)ccc21", "recordedNumber": 7.95}
{"smilesNotation": "CCc1ccc(-c2nc3c(OC)c(C(N)=O)ccc3n2CCn2c(-c3ccc(CC)cc3C(=O)O)nc3c(OC)c(C(N)=O)ccc32)c(C(=O)O)c1", "recordedNumber": 1.17}
{"smilesNotation": "COc1c(C(N)=O)cc(F)c2c1nc(-c1ccc(Cl)cc1C(=O)O)n2CCn1c(-c2ccc(Cl)cc2C(=O)O)nc2c(OC)c(C(N)=O)cc(F)c21", "recordedNumber": -3}
{"smilesNotation": "COc1c(C(N)=O)ccc2c1nc(-c1ccc(Cl)cc1-c1cn[nH]n1)n2CCn1c(-c2ccc(Cl)cc2-c2cn[nH]n2)nc2c(OC)c(C(N)=O)ccc21", "recordedNumber": -3.16}

====

Listed below: EC50 values for each entry.
biological target: WT human STING isoform (THP-1-Dual KI-hSTING-R232 cells) (Homo sapiens (Human), UniProt Q86WV6, H232R); test: THP-1-Dual KI-hSTING-R232 reporter cell line assay; assay type: cell-based; conditions: 24 h incubation, QUANTI-Luc luminescence

{"molecule": "COc1c(C(N)=O)ccc2c1nc(-c1cccc(Cl)c1-c1nn[nH]n1)n2CCn1c(-c2cccc(Cl)c2-c2nn[nH]n2)nc2c(OC)c(C(N)=O)ccc21 [Example 40]", "EC50": "> 40 µM"}
{"molecule": "NC(=O)c1ccc2c(c1)nc(-c1ccc(Cl)cc1C(=O)O)n2CCn1c(-c2ccc(Cl)cc2C(=O)O)nc2cc(C(N)=O)ccc21 [Example 39]", "EC50": "> 40 µM"}
{"molecule": "CCc1ccc(-c2nc3c(OC)c(C(N)=O)ccc3n2CCn2c(-c3ccc(CC)cc3C(=O)O)nc3c(OC)c(C(N)=O)ccc32)c(C(=O)O)c1 [Example 33]", "EC50": "> 40 µM"}
